Reported combination Emax values for a set of compounds
Test system: KALS-1 (Glioblastoma)
Assay: combination Emax (second highest fraction inhibited in the dose matrix, 72 h); higher = more inhibition; extreme values may be limits of the assay

Compound	combination Emax
NC1(C(=O)N[C@@H](CCO)c2ccc(Cl)cc2)CCN(c2ncnc3[nH]ccc23)CC1 [Capivasertib] + CC(=O)c1c(C)c2cnc(Nc3ccc(N4CCNCC4)cn3)nc2n(C2CCCC2)c1=O [Palbociclib] (first compound max 10 µM, 7x7, partner max 10 µM)	0.398
CN(CCO)CC[C@H](CSc1ccccc1)Nc1ccc(S(=O)(=O)NC(=O)c2ccc(N3CCC([C@@H](O)c4ccccc4-c4ccc(Cl)cc4)CC3)cc2)cc1S(=O)(=O)C(F)(F)F [AZD4320] + CC(=O)O[C@H]1C(=O)[C@@]2(C)[C@H]([C@H](OC(=O)c3ccccc3)[C@]3(O)C[C@H](OC(=O)[C@H](O)[C@@H](NC(=O)c4ccccc4)c4ccccc4)C(C)=C1C3(C)C)[C@]1(OC(C)=O)CO[C@@H]1C[C@@H]2O [Paclitaxel] (first compound max 1 µM, 7x7, partner max 3 µM)	0.984
C=CCn1c(=O)c2cnc(Nc3ccc(N4CCN(C)CC4)cc3)nc2n1-c1cccc(C(C)(C)O)n1 [AZD1775] + C1CN(CCC1(C(=O)N[C@@H](CCO)C2=CC=C(C=C2)Cl)N)C3=NC=NC4=C3C=CN4 [Capivasertib] (first compound max 3 µM, partner max 3 µM)	0.766
CN(CCO)CC[C@H](CSc1ccccc1)Nc1ccc(S(=O)(=O)NC(=O)c2ccc(N3CCC([C@@H](O)c4ccccc4-c4ccc(Cl)cc4)CC3)cc2)cc1S(=O)(=O)C(F)(F)F [AZD4320] + C[C@@H](Nc1cc(F)cc(F)c1)c1cc(C(=O)N(C)C)cc2c(=O)cc(N3CCOCC3)oc12 [AZD8186] (first compound max 1 µM, 7x7, partner max 3 µM)	0.5
C[C@@H](Oc1cc(-c2cnn(C3CCNCC3)c2)cnc1N)c1c(Cl)ccc(F)c1Cl [Crizotinib] + CC1=C(C(=CC=C1)Cl)NC(=O)C2=CN=C(S2)NC3=CC(=NC(=N3)C)N4CCN(CC4)CCO [Dasatinib] (first compound max 10 µM, 7x7, partner max 2 µM)	0.925
COc1nnc2ccc(N3CCC(c4ccc(OCCN5CCN(C)C(=O)[C@H]5C)cc4)CC3)nn12 [AZD5153] + C=CCn1c(=O)c2cnc(Nc3ccc(N4CCN(C)CC4)cc3)nc2n1-c1cccc(C(C)(C)O)n1 [AZD1775] (first compound max 1 µM, partner max 1 µM)	0.723
CCc1c2c(nc3ccc(O)cc13)-c1cc3c(c(=O)n1C2)COC(=O)[C@]3(O)CC [SN-38] + O=C(c1cc(Cc2n[nH]c(=O)c3ccccc23)ccc1F)N1CCN(C(=O)C2CC2)CC1 [Olaparib] (first compound max 0.3 µM, 7x7, partner max 10 µM)	0.616
CCc1c2c(nc3ccc(O)cc13)-c1cc3c(c(=O)n1C2)COC(=O)[C@]3(O)CC [SN-38] + CN(C)CCCOc1ccc(-c2ccc3ncc4c(c3c2)n(C2CCOCC2)c(=O)n4C)cn1 [AZD0156] (first compound max 0.3 µM, 7x7, partner max 1 µM)	0.596
C[C@@H](Nc1cc(F)cc(F)c1)c1cc(C(=O)N(C)C)cc2c(=O)cc(N3CCOCC3)oc12 [AZD8186] + CC(=O)c1c(C)c2cnc(Nc3ccc(N4CCNCC4)cn3)nc2n(C2CCCC2)c1=O [Palbociclib] (first compound max 10 µM, 7x7, partner max 10 µM)	0.38
CN(CCO)CC[C@H](CSc1ccccc1)Nc1ccc(S(=O)(=O)NC(=O)c2ccc(N3CCC([C@@H](O)c4ccccc4-c4ccc(Cl)cc4)CC3)cc2)cc1S(=O)(=O)C(F)(F)F [AZD4320] + Cc1cc2ncnn2cc1Nc1ncc2c(n1)n(C1CCOCC1)c(=O)n2C [AZD7648] (first compound max 1 µM, 7x7, partner max 10 µM)	0.343
CC1(C)CCC(CN2CCN(c3ccc(C(=O)NS(=O)(=O)c4ccc(NCC5CCOCC5)c([N+](=O)[O-])c4)c(Oc4cnc5[nH]ccc5c4)c3)CC2)=C(c2ccc(Cl)cc2)C1 [Venetoclax] + Cn1cnc2c(F)c(Nc3ccc(Br)cc3Cl)c(C(=O)NOCCO)cc21 [Selumetinib] (first compound max 1 µM, 7x7, partner max 3 µM)	0.578

====

System: NCI-H2373 (Mesothelioma)
Experiment: combination Emax (second highest fraction inhibited in the dose matrix, 72 h); higher = more inhibition; extreme values may be limits of the assay
Reported combination Emax values for a set of molecules

Molecule	Tested On	combination Emax
COc1nnc2ccc(N3CCC(c4ccc(OCCN5CCN(C)C(=O)[C@H]5C)cc4)CC3)nn12 [AZD5153] + CCN(CCO)CCCOc1ccc2c(Nc3cc(CC(=O)Nc4cccc(F)c4)[nH]n3)ncnc2c1 [AZD2811] (first compound max 1 µM, 7x7, partner max 1 µM)	NCI-H2373 (Mesothelioma)	0.41
C=CCn1c(=O)c2cnc(Nc3ccc(N4CCN(C)CC4)cc3)nc2n1-c1cccc(C(C)(C)O)n1 [AZD1775] + C1CN(CCC1(C(=O)N[C@@H](CCO)C2=CC=C(C=C2)Cl)N)C3=NC=NC4=C3C=CN4 [Capivasertib] (first compound max 3 µM, partner max 3 µM)	NCI-H2373 (Mesothelioma)	0.54
Cn1cnc2c(F)c(Nc3ccc(Br)cc3Cl)c(C(=O)NOCCO)cc21 [Selumetinib] + CCN(CCO)CCCOc1ccc2c(Nc3cc(CC(=O)Nc4cccc(F)c4)[nH]n3)ncnc2c1 [AZD2811] (first compound max 10 µM, 7x7, partner max 1 µM)	NCI-H2373 (Mesothelioma)	0.284
Cc1c2c(nn1C)CSCc1cc(n(C)n1)CSc1cc(c3ccccc3c1)OCCCc1c(C(=O)O)n(C)c3c-2c(Cl)ccc13 [AZD5991] + Cn1cnc2c(F)c(Nc3ccc(Br)cc3Cl)c(C(=O)NOCCO)cc21 [Selumetinib] (first compound max 1 µM, 7x7, partner max 3 µM)	NCI-H2373 (Mesothelioma)	0.318

====

Tested on: HT-1080 (Other Solid Carcinomas)
Test: Bliss excess, mean over the matrix (fraction); higher = more synergy

Compound	Tested On	Bliss excess
C[C@@H](c1ccc2nccn2c1)n1nnc2ncc(-c3cnn(C)c3)nc21 [Savolitinib] + Cc1c2c(nn1C)CSCc1cc(n(C)n1)CSc1cc(c3ccccc3c1)OCCCc1c(C(=O)O)n(C)c3c-2c(Cl)ccc13 [AZD5991] (first compound max 1 µM, 7x7, partner max 1 µM)	HT-1080 (Other Solid Carcinomas)	-0.0475
COc1cccc2c1C(=O)c1c(O)c3c(c(O)c1C2=O)C[C@@](O)(C(=O)CO)C[C@@H]3O[C@H]1C[C@H](N)[C@H](O)[C@H](C)O1 [Doxorubicin] + Cc1cc2ncnn2cc1Nc1ncc2c(n1)n(C1CCOCC1)c(=O)n2C [AZD7648] (first compound max 1 µM, 7x7, partner max 10 µM)	HT-1080 (Other Solid Carcinomas)	0.108
COc1nnc2ccc(N3CCC(c4ccc(OCCN5CCN(C)C(=O)[C@H]5C)cc4)CC3)nn12 [AZD5153] + C=CCn1c(=O)c2cnc(Nc3ccc(N4CCN(C)CC4)cc3)nc2n1-c1cccc(C(C)(C)O)n1 [AZD1775] (first compound max 1 µM, partner max 1 µM)	HT-1080 (Other Solid Carcinomas)	-0.0362
C[C@@H]1COCCN1c1cc(C2([S@](C)(=N)=O)CC2)nc(-c2ccnc3[nH]ccc23)n1 [AZD6738] + O=C(c1cc(Cc2n[nH]c(=O)c3ccccc23)ccc1F)N1CCN(C(=O)C2CC2)CC1 [Olaparib] (first compound max 10 µM, 7x7, partner max 10 µM)	HT-1080 (Other Solid Carcinomas)	0.0128

====

System: MOLP-8 (Plasma Cell Myeloma)
Assay: Bliss excess, mean over the matrix (fraction); higher = more synergy
Reported Bliss excess values for a set of compounds

Compound	Tested On	Bliss excess
COc1cc2ncnc(Nc3ccc(F)c(Cl)c3)c2cc1OCCCN1CCOCC1 [Gefitinib] + CC(C)n1c(=O)n(C)c2cnc3cc(F)c(-c4ccc(OCCCN5CCCCC5)nc4)cc3c21 [AZD1390] (first compound max 10 µM, 7x7, partner max 0.3 µM)	MOLP-8 (Plasma Cell Myeloma)	-0.0584
CN(CCO)CC[C@H](CSc1ccccc1)Nc1ccc(S(=O)(=O)NC(=O)c2ccc(N3CCC([C@@H](O)c4ccccc4-c4ccc(Cl)cc4)CC3)cc2)cc1S(=O)(=O)C(F)(F)F [AZD4320] + CN(C)CCCOc1ccc(-c2ccc3ncc4c(c3c2)n(C2CCOCC2)c(=O)n4C)cn1 [AZD0156] (first compound max 1 µM, 7x7, partner max 1 µM)	MOLP-8 (Plasma Cell Myeloma)	0.0233
CC(=O)c1c(C)c2cnc(Nc3ccc(N4CCNCC4)cn3)nc2n(C2CCCC2)c1=O [Palbociclib] + CC1(C)CCC(CN2CCN(c3ccc(C(=O)NS(=O)(=O)c4ccc(NCC5CCOCC5)c([N+](=O)[O-])c4)c(Oc4cnc5[nH]ccc5c4)c3)CC2)=C(c2ccc(Cl)cc2)C1 [Venetoclax] (first compound max 10 µM, 7x7, partner max 1 µM)	MOLP-8 (Plasma Cell Myeloma)	0.0278
